# assay protocol: Final pH of treated solution
# Assay type: physicochemical
# conditions used: 0.2 grams of reagent; water 4.36
measured parameter: Final pH of Treated Solution
// response body must contain only the number

Query :: So what does the record say about Final pH of Treated Solution for O=C(O)O [CaCO3, Calcium carbonate] ?
Result :: 7.12

Query :: Please look up its Final pH of Treated Solution: [O]=[Mg] [MgO, magnesium oxide]
Result :: 7.33

Query :: GET /values?readout=Final pH of Treated Solution&item= [O]=[Ca] [CaO, calcium oxide]
Result :: 12.34

Query :: # Final pH of Treated Solution lookup, item [Mg+2].[OH-].[OH-] [Mg(OH)2, magnesium hydroxide]
Result :: 8.86

Query :: What does the data say about its Final pH of Treated Solution? Entry: [Ca+2].[OH-].[OH-] [Ca(OH)2, calcium hydroxide]
Result :: 12.23

Query :: Requested read-out: Final pH of Treated Solution. Entry: O=C(O)O [MgCO3, magnesium carbonate]
Result :: 7.96
